These entries and their values trace back to PubChem BioAssay AID2060888.

Tested on: 695427-040-R-J1-PDC complex spheroid viability;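 also: viability read after seven days of drug exposure; 100% = DMSO vehicle control viability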
Assay Text: Anticancer human tumor 695427-040-R-J1-PDC patient-derived colon adenocarcinoma cell line growth inhibition [RAS]
Test Settings: second compound 3.16 µM; first compound 0.00316 µM; active compounds read low
As shown below, each of these compounds has a reported viability, T/C value.

Worked examples follow.
Reported viability, T/C, compound CC(C)n1nc(-c2ccc3oc(N)nc3c2)c2c(N)ncnc21 + C#Cc1c(F)ccc2cc(O)cc(-c3ncc4c(N5CC6CCC(C5)N6)nc(OCC56CCCN5CC(F)C6)nc4c3F)c12 : ____
47.4%

Reported viability, T/C, compound CCN1CCN(Cc2ccc(Nc3ncc(F)c(-c4cc(F)c5nc(C)n(C(C)C)c5c4)n3)nc2)CC1 + C#Cc1c(F)ccc2cc(O)cc(-c3ncc4c(N5CC6CCC(C5)N6)nc(OCC56CCCN5CC(F)C6)nc4c3F)c12 : ____
53.3%

Continuing:
Reported viability, T/C, compound Nc1ccn(C2OC(CO)C(O)C2(F)F)c(=O)n1 (stereo not drawn) + C#Cc1c(F)ccc2cc(O)cc(-c3ncc4c(N5CC6CCC(C5)N6)nc(OCC56CCCN5CC(F)C6)nc4c3F)c12 : ____
57.9%
